Ref: patent US20090215857A1

# target_of_assay: human norepinephrine transporter (Homo sapiens, UniProt P23975)
# Sequence (P23975 whole entry): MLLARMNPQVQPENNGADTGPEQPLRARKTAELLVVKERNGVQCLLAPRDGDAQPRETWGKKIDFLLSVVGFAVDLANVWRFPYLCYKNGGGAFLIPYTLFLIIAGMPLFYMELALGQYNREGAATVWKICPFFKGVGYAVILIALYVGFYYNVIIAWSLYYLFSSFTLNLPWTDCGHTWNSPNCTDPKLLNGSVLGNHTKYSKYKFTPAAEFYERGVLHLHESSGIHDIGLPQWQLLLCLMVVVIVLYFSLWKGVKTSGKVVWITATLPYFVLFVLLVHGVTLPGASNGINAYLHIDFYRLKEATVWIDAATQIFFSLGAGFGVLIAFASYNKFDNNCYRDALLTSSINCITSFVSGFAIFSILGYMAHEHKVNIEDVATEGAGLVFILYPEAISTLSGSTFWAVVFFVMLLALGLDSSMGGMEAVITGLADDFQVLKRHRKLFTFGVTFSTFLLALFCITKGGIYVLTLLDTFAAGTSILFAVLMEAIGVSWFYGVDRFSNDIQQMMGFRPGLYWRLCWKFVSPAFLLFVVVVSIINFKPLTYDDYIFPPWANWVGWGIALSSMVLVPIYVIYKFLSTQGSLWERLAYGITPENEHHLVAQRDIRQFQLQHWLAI
Counter-ions that a name gives are not always drawn.
property_name: Ki (nM)

Here is how some compounds turned out for Ki.
Fc1ccc(-c2ccccc2F)c(CO[C@H]2CCNC2)c1 [Example A-9, fumarate]	17.7
Fc1cc(F)cc(-c2ccccc2CO[C@H]2CCNC2)c1 [Example A-17, hydrochloride]	93.5
Fc1ccc(-c2ccc(F)cc2CO[C@H]2CCNC2)c(F)c1.O=C(O)/C=C/C(=O)O [Example A-3, fumarate]	10.8

[P] c1ccc(-c2cccc3ccccc23)c(CO[C@H]2CCNC2)c1
[Q] CC(=O)c1cccc(-c2ccc(F)cc2CO[C@H]2CCNC2)c1
[R] N#Cc1cccc(-c2ccccc2CO[C@H]2CCNC2)c1 [Example D-30]
[S] Fc1cccc(-c2ccccc2CO[C@@H]2CCNC2)c1F [Example A-15, fumarate]
[T] COc1cccc(-c2ccccc2CO[C@H]2CCNC2)c1
Order the records, beginning with the lowest Ki and ending with the highest. Write the labels in rank order as requested.
P, S, T, R, Q

* * *

pKi: −log10 of the molar value. Structures can show the parent of a compound that is named as a salt.
A short record of pKi observed with human norepinephrine transporter (Homo sapiens) follows.
property_name: pKi

Here is how some molecules turned out for pKi.
Fc1ccc(-c2ccccc2CO[C@H]2CCNC2)c(F)c1 [Example A-1, fumarate]	7.96
COc1ccc(-c2ccccc2CO[C@H]2CCNC2)cc1C [Example A-10, fumarate]	7.64
Fc1ccc(-c2ccccc2CO[C@H]2CCNC2)cc1F [Example A-5, hydrochloride]	7.95

[I] Fc1ccc(-c2cc(F)ccc2CO[C@H]2CCNC2)c(F)c1 [Example A-23, hydrochloride]
[II] COc1ccccc1-c1ccccc1CO[C@H]1CCNC1
Determine, for I and II , which has the greater value of pKi. Select an item and report its label.
I

* * *

# target_of_assay: human serotonin transporter (Homo sapiens, UniProt P31645)
# Sequence (P31645 whole entry): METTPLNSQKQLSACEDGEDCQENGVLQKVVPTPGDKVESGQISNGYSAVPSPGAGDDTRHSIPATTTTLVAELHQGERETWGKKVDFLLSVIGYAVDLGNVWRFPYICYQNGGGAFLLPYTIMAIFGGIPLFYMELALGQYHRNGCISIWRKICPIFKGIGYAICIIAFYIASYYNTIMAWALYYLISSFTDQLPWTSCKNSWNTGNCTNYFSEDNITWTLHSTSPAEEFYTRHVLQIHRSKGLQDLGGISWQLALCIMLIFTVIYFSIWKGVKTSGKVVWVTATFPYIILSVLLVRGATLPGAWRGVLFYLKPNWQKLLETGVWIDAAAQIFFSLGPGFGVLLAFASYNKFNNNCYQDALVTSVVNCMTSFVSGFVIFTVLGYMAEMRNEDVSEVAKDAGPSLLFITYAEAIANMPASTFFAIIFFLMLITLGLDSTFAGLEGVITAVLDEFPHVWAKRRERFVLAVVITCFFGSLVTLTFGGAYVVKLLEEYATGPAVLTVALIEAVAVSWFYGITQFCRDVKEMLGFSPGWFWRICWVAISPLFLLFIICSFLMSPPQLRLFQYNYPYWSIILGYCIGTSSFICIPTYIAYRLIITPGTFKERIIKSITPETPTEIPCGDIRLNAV
pKi: −log10 of the molar value. Counter-ions that a name gives are not always drawn.
property_name: pKi

Here is how some compounds turned out for pKi.
COc1ccc(F)cc1-c1ccccc1CO[C@H]1CCNC1 [Example A-22, fumarate]	6.86
Fc1ccc(Cl)cc1-c1ccccc1CO[C@H]1CCNC1 [Example D-9]	7.15
Fc1cc(F)cc(-c2ccccc2CO[C@H]2CCNC2)c1 [Example A-17, hydrochloride]	7.82

[A] CC(C)Oc1ccccc1-c1ccccc1CO[C@H]1CCNC1 [Example A-19, fumarate]
[B] c1ccc(-c2cnc3[nH]ccc3c2)c(CO[C@H]2CCNC2)c1 [Example D-124]
Determine, for A and B , which has the greater value of pKi. Select an item and report its label.
A

* * *

# target_of_assay: human norepinephrine transporter (Homo sapiens)
Structures can show the parent of a compound that is named as a salt.
property_name: Ki (nM)

Here is how some molecules turned out for Ki.
Fc1ccc(F)c(-c2cccnc2CO[C@H]2CCNC2)c1 [Example C-1, fumarate]	382
Fc1ccccc1-c1c(F)cccc1CO[C@H]1CCNC1 [Example A-32, hydrochloride]	23.9
Fc1ccc(-c2ccccc2CO[C@@H]2CCNC2)cc1F [Example A-13, fumarate]	66
Fc1ccc(-c2ccc(Cl)c(Cl)c2)c(CO[C@H]2CCNC2)c1	109
Fc1ccccc1-c1ccccc1CO[C@H]1CCNC1	14.7

[P] Cc1cccc(-c2ccccc2CO[C@H]2CCNC2)c1C
[Q] Clc1ccccc1-c1ccccc1CO[C@H]1CCNC1
[R] CCc1ccc(-c2ccc(F)cc2CO[C@H]2CCNC2)cc1
Order the records, beginning with the lowest Ki and ending with the highest. Write the labels in rank order as requested.
Q, P, R
(Q: 108 nM, P: 585 nM, R: 1280 nM)
